Data provenance is the kinase profiling compilation of Christmann-Franck et al. (2016).

tested_system: MAP3K13 (human)
assay: KINOMEscan competition binding
test_settings: compound 10.0 µM
measured_attribute: kinase still bound, per cent of control
Show the value, then the unit it is measured in.

C=CC(=O)Nc1cc(-n2c(=O)ccc3cnc4ccc(-c5cn[nH]c5)cc4c32)ccc1C	84%
CNC(=O)c1cc(Oc2ccc(NC(=O)Nc3ccc(Cl)c(C(F)(F)F)c3)cc2)ccn1	100%

Recorded result, O=c1cc(N2CCOCC2)oc2c(-c3cccc4c3sc3ccccc34)cccc12 , kinase still bound, per cent of control: 100%

----------
kinase still bound, per cent of control overview
tested_system: RPS6KA4 KD2 (human)
assay: KINOMEscan competition binding
test_settings: compound 10.0 µM
State the answer as a number, implicitly in %.

# count of solved cases: 4
CN(C)C/C=C/C(=O)Nc1ccc(C(=O)Nc2cccc(Nc3nccc(-c4cccnc4)n3)c2)cc1	80
C=CC(=O)Nc1ccc(CN(C(=O)Nc2c(Cl)c(OC)cc(OC)c2Cl)c2cc(Nc3ccc(N4CCN(C)CC4)cc3)ncn2)cc1	100
CCN(CC)CCCCNc1ncc2cc(-c3cc(OC)cc(OC)c3)c(NC(=O)NC(C)(C)C)nc2n1	100
CS(=O)(=O)N1CCN(Cc2cc3nc(-c4cccc5[nH]ncc45)nc(N4CCOCC4)c3s2)CC1	100

Recorded result, C=CC(=O)Nc1cc(-n2c(=O)ccc3cnc4ccc(-c5cn[nH]c5)cc4c32)ccc1C , kinase still bound, per cent of control: 94

Recorded result, CCN(CC)CCCCNc1ncc2c(n1)N(C)C(=O)N(c1c(Cl)c(OC)cc(OC)c1Cl)C2 , kinase still bound, per cent of control: 100

Recorded result, CNC(=O)c1ccc(Nc2cc(Nc3ccccc3S(=O)(=O)C(C)C)c3cc[nH]c3n2)nc1 , kinase still bound, per cent of control: 100

Recorded result, COc1cc(N2CCN(C)CC2)ccc1Nc1ncc2c(n1)N(C)c1ccccc1C(=O)N2C , kinase still bound, per cent of control: 100
